For each of the compounds below, state its particle size distribution d(90).
test: Particle size distribution d(10), d(50), d(90); assay type: physicochemical; conditions: before micronization (as isolated)
Record the value in μm, omitting the unit from your answer.

For this compound ( CN1C[C@H]2c3ccccc3Oc3ccc(Cl)cc3[C@@H]2C1.O=C(O)/C=C\C(=O)O [Example 15, Asenapine Maleate Monoclinic Form] ), measured particle size distribution d(90) is 33.11

Form: compound = CN1C[C@H]2c3ccccc3Oc3ccc(Cl)cc3[C@@H]2C1.O=C(O)/C=C\C(=O)O [Example 26, Asenapine Maleate] ; particle size distribution d(90) = 88

Notebook: CN1C[C@H]2c3ccccc3Oc3ccc(Cl)cc3[C@@H]2C1.O=C(O)/C=C\C(=O)O [Example 13, Asenapine Maleate] , particle size distribution d(90) read as 80.698

The compound identified as CN1C[C@H]2c3ccccc3Oc3ccc(Cl)cc3[C@@H]2C1.O=C(O)/C=C\C(=O)O [Example 11, Asenapine Maleate Monoclinic Form] registered its particle size distribution d(90) at 58.716
